For each entry below, report its pIC50 value.
target.system: cloned recombinant human HDAC-1 (Homo sapiens)
Construct: made in house; host or cells: Baculovirus insect cell expression system
Sequence (Q13547 whole entry): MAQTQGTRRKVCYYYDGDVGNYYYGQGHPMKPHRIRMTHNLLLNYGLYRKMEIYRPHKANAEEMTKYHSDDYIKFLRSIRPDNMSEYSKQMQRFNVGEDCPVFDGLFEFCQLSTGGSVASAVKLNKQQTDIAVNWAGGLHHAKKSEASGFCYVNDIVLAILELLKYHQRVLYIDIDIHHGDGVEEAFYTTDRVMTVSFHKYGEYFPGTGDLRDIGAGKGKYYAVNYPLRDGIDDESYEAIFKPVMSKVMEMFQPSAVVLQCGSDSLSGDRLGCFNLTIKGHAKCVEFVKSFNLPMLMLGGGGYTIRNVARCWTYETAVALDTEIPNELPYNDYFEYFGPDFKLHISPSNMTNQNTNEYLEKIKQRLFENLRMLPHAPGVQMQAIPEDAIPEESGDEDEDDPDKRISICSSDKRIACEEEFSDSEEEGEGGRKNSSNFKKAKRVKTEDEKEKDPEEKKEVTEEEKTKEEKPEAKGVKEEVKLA
procedure.details: Human HDAC-1 enzyme inhibition, Assay 1 ([3H]-acetylated histone substrate, scintillation counting)
Format: biochemical
particulars: Table 5a; read-out: Human HDAC-1 IC50
Please note pIC50 is a logarithmic value: minus log10 of concentration in mol/L. Answer with that number alone.

Query :: Quick one: pIC50 of Nc1nc(NCc2ccc(C(=O)Nc3ccccc3N)cc2)nc(NC2Cc3ccccc3C2)n1 ?
Result :: 6.40

Query :: Next compound: Nc1nc(NCc2ccc(C(=O)Nc3ccccc3N)cc2)nc(NC2c3ccccc3-c3ccccc32)n1
Result :: 6.52

Query :: What about this compound? Nc1ccccc1NC(=O)c1ccc(CNc2nc(N3CCCCC3)nc(N3CCCCC3)n2)cc1
Result :: 6.30

Query :: Also CC1(C)C2CC[C@@](C)(C2)[C@H]1Nc1nc(N)nc(NCc2ccc(C(=O)Nc3ccccc3N)cc2)n1 , if possible.
Result :: 6.05

Query :: Now this one: COc1ccccc1CCNc1nc(N)nc(NCc2ccc(C(=O)Nc3ccccc3N)cc2)n1
Result :: 5.70

Query :: What about Nc1nc(NCc2ccc(C(=O)Nc3ccccc3N)cc2)nc(N2CCc3ccccc32)n1 ?
Result :: 5.52

Query :: Proceed to Nc1ccccc1NC(=O)c1ccc(CNc2nc(NCCc3ccccc3)nc(NC3Cc4ccccc4C3)n2)cc1
Result :: 6.40

Query :: Another compound to check: COc1cc(Nc2nc(N)nc(NCc3ccc(C(=O)Nc4ccccc4N)cc3)n2)cc(OC)c1OC
Result :: 5.40

Query :: Another compound: Nc1nc(NCc2ccc(C(=O)Nc3ccccc3N)cc2)nc(NC2CCCC2)n1
Result :: 6.00

Query :: Again, but for Nc1ccccc1NC(=O)c1ccc(CNc2nc(NC3CC3)nc(NC3Cc4ccccc4C3)n2)cc1
Result :: 6.05

Query :: Ok, now Nc1ccccc1NC(=O)c1ccc(CNc2nc(NCc3cccnc3)nc(NC3Cc4ccccc4C3)n2)cc1
Result :: 6.00

Query :: Can you handle Nc1nc(NCc2ccc(C(=O)Nc3ccccc3N)cc2)nc(NCc2ccccn2)n1 next?
Result :: 5.70

Query :: Next compound up: C=CCNc1nc(NCc2ccc(C(=O)Nc3ccccc3N)cc2)nc(NC2Cc3ccccc3C2)n1
Result :: 6.10

Query :: Would you kindly repeat that for Nc1nc(CC(=O)N2CCN(Cc3ccc4c(c3)OCO4)CC2)nc(NCc2ccc(C(=O)Nc3ccccc3N)cc2)n1 [18b] ?
Result :: 6.22

Query :: Same lookup for Nc1nc(NCc2ccc(C(=O)Nc3ccccc3N)cc2)nc(N2CCN(c3ccccc3)CC2)n1 , please.
Result :: 5.70
